- Tested on: Fer (mouse);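 note: 11-residue human phosphosite peptides and single-mutation variants displayed on the E. coli surface, counted by deep sequencing, each peptide's frequency after selection divided by its frequency in the unselected input library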;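 note: frequency after pTyr selection over input frequency; kinase dosed for 20-30% of maximal phosphorylation in three min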
- assay.comment: phosphorylation enrichment, bacterial display (enrichment ratio); higher = better substrate or ligand; peptides without Tyr show the background
Below is a list of entries, each paired with its recorded phosphorylation enrichment value.
metric.name: phosphorylation enrichment

[[record]]
macromolecule_sequence = "FRDMDYRSFPH [RBM10_Y41_R46H_YF]"
experimental_value = 0.407

[[record]]
macromolecule_sequence = "TFEYRYLEDRD [CNOT3_Y746]"
experimental_value = 0.472

[[record]]
macromolecule_sequence = "HGVSSYDTVIS [LDLR_Y465]"
experimental_value = 0.638

[[record]]
macromolecule_sequence = "IRTIDYRYTVW [IDS_Y497]"
experimental_value = 0.57

[[record]]
macromolecule_sequence = "DFPIGYPSFLA [TBCK_Y153_YF]"
experimental_value = 0.459

[[record]]
macromolecule_sequence = "QMVGMYASSYM [AVPR2_Y124]"
experimental_value = 1.07

[[record]]
macromolecule_sequence = "NGPDVYVLPVT [AATK_Y93_L97V]"
experimental_value = 0.453

